Each recorded value in this set is attributed to the CheMixHub drug solubility set.

Attribute: solubility (g/100 g solution)
assay: xn = mol fraction of the nth substance listed, in the solute-free solvent; conditions: 293.15 K; x2 = 0.1

{"compound": "Cc1nc(C)c(C)nc1C + CO + CC#N", "solubility (g/100 g solution)": 25.1}
{"compound": "Cc1nc(C)c(C)nc1C + CCCCO + CC#N", "solubility (g/100 g solution)": 27.1}
{"compound": "O=CC(O)C(O)C(O)CO (stereo unspecified) + CCO + CCCCCC", "solubility (g/100 g solution)": 0.0738}
{"compound": "O=CC(O)C(O)C(O)CO (stereo unspecified) + CO + ClCCl", "solubility (g/100 g solution)": 0.204}
{"compound": "O=CC(O)C(O)C(O)CO (stereo unspecified) + CC(C)O + CCCCCC", "solubility (g/100 g solution)": 0.0952}
{"compound": "O=CC(O)C(O)C(O)CO (stereo unspecified) + CCO + ClCCl", "solubility (g/100 g solution)": 0.254}

###

experiment: xn = mol fraction of the nth substance listed, in the solute-free solvent; settings: 288.15 K; x2 = 0.2

{"molecule": "Cc1nc(C)c(C)nc1C + CCCCO + CC#N", "solubility (g/100 g solution)": 27.1}
{"molecule": "Cl.NC(C=O)C(O)C(O)C(O)CO (stereo unspecified) + O + CO", "solubility (g/100 g solution)": 1.03}
{"molecule": "Cc1nc(C)c(C)nc1C + CO + CC#N", "solubility (g/100 g solution)": 26.7}
{"molecule": "O=CC(O)C(O)C(O)CO (stereo unspecified) + CO + ClCCl", "solubility (g/100 g solution)": 0.673}
{"molecule": "O=c1cc(-c2ccccc2)oc2cc(O)c(O)c(O)c12 + CCO + O", "solubility (g/100 g solution)": 0.0499}
{"molecule": "O=CC(O)C(O)C(O)CO (stereo unspecified) + CCO + ClCCl", "solubility (g/100 g solution)": 0.458}

###

Attribute: solubility (g/100 g solution)
experiment: xn = mol fraction of the nth substance listed, in the solute-free solvent; settings: 288.15 K; x2 = 0.6
readout label: solubility (g/100 g solution)

{"compound": "O=CC(O)C(O)C(O)CO (configuration not stated) + CCO + ClCCl", "measured result": 2.12}
{"compound": "Cc1nc(C)c(C)nc1C + CO + CC#N", "measured result": 42.7}
{"compound": "Cl.NC(C=O)C(O)C(O)C(O)CO (configuration not stated) + O + CCO", "measured result": 2.56}
{"compound": "O=CC(O)C(O)C(O)CO (configuration not stated) + CO + ClCCl", "measured result": 4.63}
{"compound": "O=c1cc(-c2ccccc2)oc2cc(O)c(O)c(O)c12 + CCO + O", "measured result": 0.455}
{"compound": "Cc1nc(C)c(C)nc1C + CCCCO + CC#N", "measured result": 34.2}
{"compound": "Cl.NC(C=O)C(O)C(O)C(O)CO (configuration not stated) + O + CO", "measured result": 5.53}

###

assay: xn = mol fraction of the nth substance listed, in the solute-free solvent; conditions: 298.15 K; x2 = 0.4
Attribute: solubility (g/100 g solution)

{"compound": "Cc1nc(C)c(C)nc1C + CCCCO + CC#N", "solubility (g/100 g solution)": 40.3}
{"compound": "Cl.NC(C=O)C(O)C(O)C(O)CO (configuration not stated) + O + CCO", "solubility (g/100 g solution)": 0.832}
{"compound": "Cc1nc(C)c(C)nc1C + CO + CC#N", "solubility (g/100 g solution)": 44.3}
{"compound": "O=CC(O)C(O)C(O)CO (configuration not stated) + CCO + ClCCl", "solubility (g/100 g solution)": 1.9}
{"compound": "Cl.NC(C=O)C(O)C(O)C(O)CO (configuration not stated) + O + CO", "solubility (g/100 g solution)": 2.95}
{"compound": "O=c1cc(-c2ccccc2)oc2cc(O)c(O)c(O)c12 + CCO + O", "solubility (g/100 g solution)": 0.314}
{"compound": "O=CC(O)C(O)C(O)CO (configuration not stated) + CO + ClCCl", "solubility (g/100 g solution)": 2.73}

###

experiment: xn = mol fraction of the nth substance listed, in the solute-free solvent; details: 313.15 K; x2 = 0.1

{"compound": "O=CC(O)C(O)C(O)CO (centres undefined) + CC(C)O + CCCCCC", "solubility (g/100 g solution)": 0.129}
{"compound": "O=CC(O)C(O)C(O)CO (centres undefined) + CCO + CCCCCC", "solubility (g/100 g solution)": 0.117}
{"compound": "Cc1nc(C)c(C)nc1C + CCCCO + CC#N", "solubility (g/100 g solution)": 44.2}
{"compound": "Cc1nc(C)c(C)nc1C + CO + CC#N", "solubility (g/100 g solution)": 44.6}

###

Attribute: solubility (g/100 g solution)
experiment: xn = mol fraction of the nth substance listed, in the solute-free solvent; details: 303.15 K; x2 = 0.2

{"compound": "O=CC(O)C(O)C(O)CO (stereo not drawn) + CC(C)O + CCCCCC", "solubility (g/100 g solution)": 0.13}
{"compound": "Cc1nc(C)c(C)nc1C + CO + CC#N", "solubility (g/100 g solution)": 40.1}
{"compound": "Cl.NC(C=O)C(O)C(O)C(O)CO (stereo not drawn) + O + CO", "solubility (g/100 g solution)": 1.35}
{"compound": "Cc1nc(C)c(C)nc1C + CCCCO + CC#N", "solubility (g/100 g solution)": 39.8}
{"compound": "O=CC(O)C(O)C(O)CO (stereo not drawn) + CO + ClCCl", "solubility (g/100 g solution)": 0.82}
{"compound": "O=CC(O)C(O)C(O)CO (stereo not drawn) + CCO + ClCCl", "solubility (g/100 g solution)": 0.776}
{"compound": "O=c1cc(-c2ccccc2)oc2cc(O)c(O)c(O)c12 + CCO + O", "solubility (g/100 g solution)": 0.0932}
{"compound": "O=CC(O)C(O)C(O)CO (stereo not drawn) + CCO + CCCCCC", "solubility (g/100 g solution)": 0.119}

###

assay: xn = mol fraction of the nth substance listed, in the solute-free solvent; conditions: 293.15 K; x2 = 0.5
Attribute: solubility (g/100 g solution)
readout label: solubility (g/100 g solution)

{"molecule": "O=CC(O)C(O)C(O)CO (configuration not stated) + CCO + CCCCCC", "measured result": 0.425}
{"molecule": "Cc1nc(C)c(C)nc1C + CCCCO + CC#N", "measured result": 39.2}
{"molecule": "Cl.NC(C=O)C(O)C(O)C(O)CO (configuration not stated) + O + CCO", "measured result": 1.55}
{"molecule": "Cc1nc(C)c(C)nc1C + CO + CC#N", "measured result": 45.1}
{"molecule": "O=CC(O)C(O)C(O)CO (configuration not stated) + CC(C)O + CCCCCC", "measured result": 0.307}
{"molecule": "O=CC(O)C(O)C(O)CO (configuration not stated) + CCO + ClCCl", "measured result": 2.15}
{"molecule": "O=CC(O)C(O)C(O)CO (configuration not stated) + CO + ClCCl", "measured result": 3.52}

###

test: xn = mol fraction of the nth substance listed, in the solute-free solvent; details: 298.15 K; x2 = 0.6
Attribute: solubility (g/100 g solution)

{"molecule": "O=CC(O)C(O)C(O)CO (configuration not stated) + CCO + ClCCl", "solubility (g/100 g solution)": 3.18}
{"molecule": "O=CC(O)C(O)C(O)CO (configuration not stated) + CO + ClCCl", "solubility (g/100 g solution)": 6.87}
{"molecule": "Cc1nc(C)c(C)nc1C + CO + CC#N", "solubility (g/100 g solution)": 51.5}
{"molecule": "Cc1nc(C)c(C)nc1C + CCCCO + CC#N", "solubility (g/100 g solution)": 41.6}
{"molecule": "O=c1cc(-c2ccccc2)oc2cc(O)c(O)c(O)c12 + CCO + O", "solubility (g/100 g solution)": 0.587}
{"molecule": "Cl.NC(C=O)C(O)C(O)C(O)CO (configuration not stated) + O + CCO", "solubility (g/100 g solution)": 3.34}
{"molecule": "Cl.NC(C=O)C(O)C(O)C(O)CO (configuration not stated) + O + CO", "solubility (g/100 g solution)": 6.76}

###

Attribute: solubility (g/100 g solution)
assay: xn = mol fraction of the nth substance listed, in the solute-free solvent; settings: 323.15 K; x2 = 0.9
readout label: solubility (g/100 g solution)

{"compound": "O=CC(O)C(O)C(O)CO (centres undefined) + CC(C)O + CCCCCC", "readout label": "solubility (g/100 g solution)", "measured result": 6.03}
{"compound": "O=CC(O)C(O)C(O)CO (centres undefined) + CCO + CCCCCC", "readout label": "solubility (g/100 g solution)", "measured result": 12.3}
{"compound": "Cl.NC(C=O)C(O)C(O)C(O)CO (centres undefined) + O + CO", "readout label": "solubility (g/100 g solution)", "measured result": 27.9}
{"compound": "Cl.NC(C=O)C(O)C(O)C(O)CO (centres undefined) + O + CCO", "readout label": "solubility (g/100 g solution)", "measured result": 23.9}
